- tested target: PAR-1 receptor (Cricetulus griseus, UniProt A0A8C2QJ57)
- Construct: Chinese hamster ovarian (CHO) cells constituently express PAR-1 receptor; endogenous in cells; host or cells: CHO cells
- Sequence (A0A8C2QJ57 22-428): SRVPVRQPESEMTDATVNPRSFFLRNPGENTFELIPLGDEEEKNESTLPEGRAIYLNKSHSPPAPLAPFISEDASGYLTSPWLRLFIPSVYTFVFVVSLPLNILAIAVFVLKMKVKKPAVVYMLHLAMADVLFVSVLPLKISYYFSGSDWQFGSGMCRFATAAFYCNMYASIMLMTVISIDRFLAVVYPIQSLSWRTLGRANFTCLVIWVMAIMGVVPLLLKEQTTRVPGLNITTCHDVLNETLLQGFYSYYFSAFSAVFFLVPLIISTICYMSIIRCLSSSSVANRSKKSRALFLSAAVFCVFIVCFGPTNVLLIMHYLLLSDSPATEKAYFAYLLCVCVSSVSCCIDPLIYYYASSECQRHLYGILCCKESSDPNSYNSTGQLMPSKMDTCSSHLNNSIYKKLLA
- experimental details: Calcium release (FLIPR) antagonism of SFLLR-activated PAR-1 in CHO cells
- Format: cell-based, Chinese hamster
- condition label: SFLLR agonist, Schild method from EC50 shifts at three concentrations, read-out: pA2 (converted)
observation type: Kb (nM)

Solved cases below.
### Prompt // query Kb value for entry N#Cc1ccccc1/C=C/C=C/C(=O)N1CCN(C2CCCC2)CC1
### Response 234

### Prompt // query Kb value for entry N#Cc1ccccc1/C=C/C=C/C(=O)N1CCN(c2ccccn2)CC1
### Response 316

### Prompt // query Kb value for entry O=C(/C=C/C=C/c1ccccc1[N+](=O)[O-])N1CCN(C2CCCC2)CC1
### Response 69.2

### Prompt // query Kb value for entry O=C(/C=C/C=C/c1ccccc1[N+](=O)[O-])N1CCN(c2ccccc2)CC1
### Response 58.9

A = O=C(C=CC=Cc1ccccc1[N+](=O)[O-])N1CCN(c2ccccn2)CC1
B = O=C(/C=C/C=C/c1ccccc1Cl)N1CCN(C2CCCC2)CC1
### Prompt # return whichever of A and B has the smaller Kb Write the label of whichever entry you select.
### Response A
(A: 77.6 nM, B: 229 nM)
